- System: Hepatitis C virus
- Assay details: Antiviral activity against HCV infected in human hepatoma cells assessed as inhibition of viral replication
- Format: functional, organism-based, Hepacivirus hominis
Assay readout: IC50 (nM)

> print(dat)
                         chemical.structure      tested.system  recorded.value
1  CCCCCCCC(=O)CCCCCC/C=C/[C@H](C(=O)N[C@@H](Cc1ccc(OCCC)cc1)C(=O)O)[C@@](O)(CC(=O)O)C(=O)O  Hepatitis C virus             2.6

[1] CCCCCCCC(=O)CCCCCC/C=C/[C@H](C(=O)N[C@@H](Cc1ccc(OCCCN)cc1)C(=O)O)[C@@](O)(CC(=O)O)C(=O)O
[2] CCCCCCCC(=O)CCCCCC/C=C/[C@H](C(=O)N[C@@H](Cc1ccccc1)C(=O)O)[C@@](O)(CC(=O)O)C(=O)O
[3] CCCCCCCCC(=O)CCCCCC/C=C/[C@H](C(=O)N[C@@H](Cc1ccc(OCCC(C)C)cc1)C(=O)O)[C@@](O)(CC(=O)O)C(=O)O
Exam item: list the entries in increasing order of IC50. Reply format: the labels, ordered as requested.
3, 2, 1
(3: 6.9 nM, 2: 17 nM, 1: 38 nM)

---

- Assay details: Cmax in Sprague-Dawley rat plasma at 10 mg/kg, sc at 0.5 hrs
- Type: ADME, organism-based
- Set-up: dose 10 mg/kg, route subcutaneous
Assay readout: Cmax (ng/mL)

[P] CCCCCCCC(=O)CCCCCC/C=C/[C@H](C(=O)N[C@@H](Cc1ccc(OCc2ccccc2)cc1)C(=O)[O-])[C@@](O)(CC(=O)[O-])C(=O)[O-].[Na+].[Na+].[Na+]
[Q] CC#CCOc1ccc(C[C@H](NC(=O)[C@@H](/C=C/CCCCCCC(=O)CCCCCCC)[C@@](O)(CC(=O)[O-])C(=O)[O-])C(=O)[O-])cc1.[Na+].[Na+].[Na+]
[R] CCCCCCCC(=O)CCCCCC/C=C/[C@H](C(=O)N[C@@H](Cc1ccc(-c2cccc(OC)c2)cc1)C(=O)[O-])[C@@](O)(CC(=O)[O-])C(=O)[O-].[Na+].[Na+].[Na+]
// ascending sort on Cmax for the entries above Reply format: the labels, ordered as requested.
P, R, Q

---

- Assay details: Cmax in Sprague-Dawley rat liver at 10 mg/kg, sc at 2 hrs
- Format: ADME, organism-based
- Set-up: dose 10 mg/kg, route subcutaneous
Assay readout: Cmax (ng/mL)

Chemical structure	U	Recorded value
CCCCCCCC(=O)CCCCCC/C=C/[C@H](C(=O)N[C@@H](Cc1ccc(-c2cccc(OC)c2)cc1)C(=O)[O-])[C@@](O)(CC(=O)[O-])C(=O)[O-].[Na+].[Na+].[Na+]	ng/mL	5920
CC#CCOc1ccc(C[C@H](NC(=O)[C@@H](/C=C/CCCCCCC(=O)CCCCCCC)[C@@](O)(CC(=O)[O-])C(=O)[O-])C(=O)[O-])cc1.[Na+].[Na+].[Na+]	ng/mL	7100
CCCCCCCC(=O)CCCCCC/C=C/[C@H](C(=O)N[C@@H](Cc1ccc(OCc2ccccc2)cc1)C(=O)[O-])[C@@](O)(CC(=O)[O-])C(=O)[O-].[Na+].[Na+].[Na+]	ng/mL	6590
